# Target Under Test: LTB4 (Homo sapiens)
# Sequence (Q15722 whole entry): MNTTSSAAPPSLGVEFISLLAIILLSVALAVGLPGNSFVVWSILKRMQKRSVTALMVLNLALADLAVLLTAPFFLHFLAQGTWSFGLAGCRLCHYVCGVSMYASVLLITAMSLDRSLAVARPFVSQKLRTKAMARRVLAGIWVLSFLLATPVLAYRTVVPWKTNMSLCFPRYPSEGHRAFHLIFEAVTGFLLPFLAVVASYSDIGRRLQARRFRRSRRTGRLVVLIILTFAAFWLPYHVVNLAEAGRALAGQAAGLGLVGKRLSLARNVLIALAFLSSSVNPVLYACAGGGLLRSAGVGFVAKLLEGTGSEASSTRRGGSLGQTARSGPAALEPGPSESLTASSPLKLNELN
# Assay Info: biochemical
pKi: −log10 of the molar value.
Assay Endpoint: pKi

[Q] For the compound shown here, COc1cccc(OC)c1NC(=O)c1ccc(Cc2cc3c(cc2C)C(C)(C)CCC3(C)C)o1 , give the reported pKi.
[A] < 6.00

----------
# Target Under Test: mouse GnRH receptor (Mus musculus)
# Construct: expressed in transfected cells; host or cells: 293 cells
# Sequence (Q01776 1-327): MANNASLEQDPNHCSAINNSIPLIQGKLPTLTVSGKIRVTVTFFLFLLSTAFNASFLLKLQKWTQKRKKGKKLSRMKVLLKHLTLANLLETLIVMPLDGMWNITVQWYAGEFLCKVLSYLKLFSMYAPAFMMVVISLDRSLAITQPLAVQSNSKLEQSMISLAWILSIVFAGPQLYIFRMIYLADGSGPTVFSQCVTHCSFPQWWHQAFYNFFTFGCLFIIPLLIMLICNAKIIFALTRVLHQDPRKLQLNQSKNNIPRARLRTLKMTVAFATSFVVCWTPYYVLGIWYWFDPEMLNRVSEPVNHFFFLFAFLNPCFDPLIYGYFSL
# Assay Info: Radioligand binding, 125I-GnRH-A, 293 cells expressing mouse GnRH receptors
# Test Settings: 1 h, substrate remaining; 10 uM compound; closer to zero = closer to 100% inhibition; read-out: S%R 10 uM mGnRHR
Record form. Attribute: remaining activity at 10 µM. Fill in for each entry.
Could you give me the number in %? Just the number is fine.

[Q] For the molecule shown here, CCCC(CO)NC(=O)c1ccc(Cc2cc3c(cc2C)C(C)(C)CCC3(C)C)o1 (stereo not shown) [Compound 673] , give the reported remaining activity at 10 µM.
[A] 2

[Q] Then this molecule: Cc1cc2c(cc1Cc1ccc(C(=O)N3CCc4ccccc4C3)o1)C(C)(C)CCC2(C)C [Compound 562]
[A] 30

[Q] Then this molecule: Cc1cc2c(cc1Cc1ccc(C(=O)NCC3CCCC(CNc4nccc(NCC5CCCO5)n4)C3)o1)C(C)(C)CCC2(C)C (stereo not shown) [Compound 492]
[A] -7

[Q] Then this molecule: Cc1cc2c(cc1Cc1ccc(C(=O)N(Cc3cccnc3)Cc3cccnc3)o1)C(C)(C)CCC2(C)C [Compound 610]
[A] 0

[Q] Then this molecule: Cc1cc2c(cc1Cc1ccc(C(=O)NCCc3ccccc3Oc3ccccc3)o1)C(C)(C)CCC2(C)C [Compound 512]
[A] 51

[Q] Then this molecule: Cc1cnc(CNC(=O)c2ccc(Cc3cc4c(cc3C)C(C)(C)CCC4(C)C)o2)cn1 [Compound 525]
[A] -9

[Q] Then this molecule: Cc1cc2c(cc1Cc1ccc(C(=O)NCCCOC(C)C)o1)C(C)(C)CCC2(C)C [Compound 560]
[A] 7

[Q] Then this molecule: Cc1cc2c(cc1Cc1ccc(C(=O)NC(C)(C)C)o1)C(C)(C)CCC2(C)C [Compound 533]
[A] 29

[Q] Then this molecule: Cc1cc2c(cc1Cc1ccc(C(=O)N(Cc3ccccc3)[C@@H](C)c3ccccc3)o1)C(C)(C)CCC2(C)C [Compound 637]
[A] 55

[Q] Then this molecule: Cc1cc2c(cc1Cc1ccc(C(=O)NCCc3ccc4c(c3)OCO4)o1)C(C)(C)CCC2(C)C [Compound 467]
[A] -1

[Q] Then this molecule: Cc1cc2c(cc1Cc1ccc(C(=O)NC(C)c3ccccc3)o1)C(C)(C)CCC2(C)C (stereo not shown) [Compound 616]
[A] 29

[Q] Then this molecule: CNCCCNC(=O)c1ccc(Cc2cc3c(cc2C)C(C)(C)CCC3(C)C)o1 [Compound 498]
[A] 58

[Q] Then this molecule: Cc1cc2c(cc1Cc1ccc(C(=O)NC3c4ccccc4-c4ccccc43)o1)C(C)(C)CCC2(C)C [Compound 570]
[A] 48

[Q] Then this molecule: COC(=O)CCCCCNC(=O)c1ccc(Cc2cc3c(cc2C)C(C)(C)CCC3(C)C)o1 [Compound 493]
[A] -6

[Q] Then this molecule: Cc1cc2c(cc1Cc1ccc(C(=O)N(CCC3CCCN3C)Cc3ccc4ccccc4c3)o1)C(C)(C)CCC2(C)C (stereo not shown) [Compound 598]
[A] -4

[Q] Then this molecule: CCSCCNC(=O)c1ccc(Cc2cc3c(cc2C)C(C)(C)CCC3(C)C)o1 [Compound 655]
[A] 2

[Q] Then this molecule: Cc1cc2c(cc1Cc1ccc(C(=O)NCCN3CCOCC3)o1)C(C)(C)CCC2(C)C [Compound 523]
[A] -4

[Q] Then this molecule: Cc1cc2c(cc1Cc1ccc(C(=O)NC(C)(CO)CO)o1)C(C)(C)CCC2(C)C [Compound 564]
[A] 45

[Q] Then this molecule: Cc1cc2c(cc1Cc1ccc(C(=O)N3CCN(C4CCCCC4)CC3)o1)C(C)(C)CCC2(C)C [Compound 701]
[A] -1

[Q] Then this molecule: Cc1cc2c(cc1Cc1ccc(C(=O)N3CCC(C)CC3)o1)C(C)(C)CCC2(C)C [Compound 605]
[A] 19

[Q] Then this molecule: Cc1cc2c(cc1Cc1ccc(C(=O)NCCc3ccc(S(N)(=O)=O)cc3)o1)C(C)(C)CCC2(C)C [Compound 461]
[A] 53

[Q] Then this molecule: Cc1cc2c(cc1Cc1ccc(C(=O)N3CCN(CCOCCO)CC3)o1)C(C)(C)CCC2(C)C [Compound 686]
[A] 37

[Q] Then this molecule: Cc1cc2c(cc1Cc1ccc(C(=O)NCc3ccc(F)cc3)o1)C(C)(C)CCC2(C)C [Compound 604]
[A] 4

[Q] Then this molecule: COC(OC)C(C)NC(=O)c1ccc(Cc2cc3c(cc2C)C(C)(C)CCC3(C)C)o1 (stereo not shown) [Compound 662]
[A] 3

[Q] Then this molecule: Cc1cc2c(cc1Cc1ccc(C(=O)NCc3ccccn3)o1)C(C)(C)CCC2(C)C [Compound 501]
[A] -3

[Q] Then this molecule: CC[C@H](C)C(CO)NC(=O)c1ccc(Cc2cc3c(cc2C)C(C)(C)CCC3(C)C)o1 (stereo partly shown) [Compound 683]
[A] 23

[Q] Then this molecule: Cc1cc2c(cc1Cc1ccc(C(=O)N3CCC(C(=O)c4ccc(F)cc4)CC3)o1)C(C)(C)CCC2(C)C [Compound 573]
[A] 37

[Q] Then this molecule: Cc1cc2c(cc1Cc1ccc(C(=O)NCCC3CCCN3C)o1)C(C)(C)CCC2(C)C (stereo not shown) [Compound 456]
[A] -12

[Q] Then this molecule: Cc1cc2c(cc1Cc1ccc(C(=O)NCCc3ccc(F)cc3)o1)C(C)(C)CCC2(C)C [Compound 632]
[A] 21

[Q] Then this molecule: Cc1cc2c(cc1Cc1ccc(C(=O)N(Cc3ccccc3)C(C)C)o1)C(C)(C)CCC2(C)C [Compound 629]
[A] 17

[Q] Then this molecule: CC(=O)N1CCCN(C(=O)c2ccc(Cc3cc4c(cc3C)C(C)(C)CCC4(C)C)o2)CC1 [Compound 599]
[A] 28
